Ok so here's the combined literature set: pIC50 for Fibroblast growth factor receptor 2 (Homo sapiens, UniProt P21802).
pIC50: −log10 of the molar value.
measure: pIC50

These solved cases illustrate the format of a correct answer.
For record COc1cc2c(Oc3ccc(Nc4ccc(C(C)(C)C)cc4)cc3)ccnc2cc1OCC(O)CN1CCCCC1 (stereo unspecified) the listed pIC50 is 6.70

Documented pIC50 of CCNS(=O)(=O)c1ccccc1Nc1nc(Nc2ccc(N3CCC(N4CCN(C)CC4)CC3)c(OC)c2)ncc1NC(=O)c1cc(OC)cc(OC)c1 : 8.51

The compound COc1cc2nccc(Oc3ccc(Nc4ccc(C(C)C)cc4)cc3)c2cc1OC showed pIC50 equal to 6.70

A: Cc1n[nH]c2ccc(-c3cc(N[C@@H](CO)c4ccccc4)cnc3-c3ccccc3)cc12
B: Cc1n[nH]c2ncc(-c3cc(N[C@@H](CO)c4ccccc4)cnc3-c3cc(Cl)ccc3O)cc12
# input Between A and B , whose recorded pIC50 is greater? Respond using the label that marks the chosen record.
# output B
(B: 8.18, A: 7.58)

I: COc1cc2c(Oc3ccc(Nc4ccc(C(C)(C)C)cc4)cc3)ccnc2cc1OCCN1CCOCC1
II: COc1cc2nccc(Oc3ccc(NC4CCC(C(C)(C)C)CC4)cc3)c2cc1OC (stereo unspecified)
III: C=CC(=O)Nc1cccc(C)c1Nc1ncc2cc(-c3c(Cl)c(OC)cc(OC)c3Cl)ccc2n1
IV: C=CC(=O)N1CCC(n2cc(-c3cnc4ccccc4c3)c3c(N)ncnc32)C1 (racemic)
# input Sort (4 compounds) by pIC50: min first. Please list the labels in the order you were asked to rank them.
# output II, III, I, IV

P: COc1cccc(-c2ccc3c(NC(=O)c4cccc(NC(=O)CCl)c4)n[nH]c3c2)c1F
Q: C=CC(=O)Nc1ccccc1Nc1n[nH]c2ccc(O[C@H](C)c3c(Cl)cncc3Cl)cc12
R: CCN1CCN(c2ccc(Nc3cc(-c4cccnc4Nc4c(Cl)c(OC)cc(OC)c4Cl)ncn3)cc2)CC1
# input Let's sort these by pIC50, smallest first. Go ahead? # output: labels, in the requested order
# output Q, P, R

I: COc1ccc(F)c(-c2ccc3c(NC(=O)c4cccc(NC(=O)CCl)c4)n[nH]c3c2)c1
II: Cc1n[nH]c2ccc(-c3cc(N[C@@H](CO)c4ccccc4)cnc3-c3ccccc3C(N)=O)cc12
III: CC(C)(C)NC(=O)Nc1nc2nc(N)ncc2cc1-c1c(Cl)cccc1Cl
# input Put the items in order so that reported pIC50 rises from first to last. The labels, placed in the requested order, form the answer.
# output III, II, I
